target: human SCD1 (Homo sapiens (Human)); test: Yeast growth assay, strain expressing human SCD1 as the sole desaturase (reduced growth as surrogate for SCD inhibition); details: yeast with OLE1 deleted expressing human SCD1 from a plasmid; growth read as OD600 after 40 h at 30° C.; top drug concentration 33.3 μM
Sequence (O00767 whole entry): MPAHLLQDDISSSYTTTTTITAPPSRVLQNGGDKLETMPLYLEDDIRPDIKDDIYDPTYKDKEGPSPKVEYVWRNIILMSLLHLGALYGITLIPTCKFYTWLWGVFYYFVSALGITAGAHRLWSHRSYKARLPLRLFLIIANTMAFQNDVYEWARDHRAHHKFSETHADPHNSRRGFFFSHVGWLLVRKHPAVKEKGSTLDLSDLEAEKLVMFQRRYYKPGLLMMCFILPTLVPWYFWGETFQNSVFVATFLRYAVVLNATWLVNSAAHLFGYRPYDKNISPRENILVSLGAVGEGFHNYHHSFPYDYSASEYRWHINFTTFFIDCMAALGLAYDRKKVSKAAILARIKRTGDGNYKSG
pIC50: −log10 of the molar value.
result type: pIC50

Reference set, count: 5
{"compound": "O=C(Nc1cnn(CCc2ccccc2)c1)c1cc(-c2ccco2)on1", "pIC50": "< 4.35"}
{"compound": "C[S+]([O-])CCC(c1ccccc1)n1cc(NC(=O)c2cc(-c3ccccc3)on2)cn1 (stereo not drawn)", "pIC50": "< 4.35"}
{"compound": "O=C(c1cc(-c2ccccc2)on1)N1CCN(c2ccc(F)cc2)CC1", "pIC50": "< 4.35"}
{"compound": "COc1ccc(C2CCCN2C(=O)c2cc(-c3ccc(C(F)(F)C(F)(F)F)cc3)on2)cc1 (stereo not drawn)", "pIC50": "< 4.35"}
{"compound": "O=C(c1cc(-c2ccco2)on1)N1CC2(CCC2)C1", "pIC50": "< 4.35"}

Your task in this section: give pIC50 for each listed record.
1. O=C(Nc1cn(Cc2ccccc2)nc1C(F)(F)F)c1cc(-c2ccccc2)on1
2. O=C(c1cc(-c2ccnnc2)on1)N1CCC[C@H]1c1ccccc1
3. O=C(c1cc(-c2ccccc2)on1)N1CC(CCl)(CNc2ccccc2)C1
4. O=C(c1cc(-c2ccccc2)on1)N1CCC2(CCN(c3ccccc3)C2)C1 (stereo not drawn)

["< 4.35", 4.43, 5.73, "< 4.35"]
